From: patent US7452905B2

# tgt: integrin α4 β1 (Homo sapiens, UniProt P05556+P13612)
# Construct: cell strain Jurkat (ATCC TIB-152) of human T cells, known to express integrin α4 β1; endogenous in cells
# Sequence (P13612 34-1032): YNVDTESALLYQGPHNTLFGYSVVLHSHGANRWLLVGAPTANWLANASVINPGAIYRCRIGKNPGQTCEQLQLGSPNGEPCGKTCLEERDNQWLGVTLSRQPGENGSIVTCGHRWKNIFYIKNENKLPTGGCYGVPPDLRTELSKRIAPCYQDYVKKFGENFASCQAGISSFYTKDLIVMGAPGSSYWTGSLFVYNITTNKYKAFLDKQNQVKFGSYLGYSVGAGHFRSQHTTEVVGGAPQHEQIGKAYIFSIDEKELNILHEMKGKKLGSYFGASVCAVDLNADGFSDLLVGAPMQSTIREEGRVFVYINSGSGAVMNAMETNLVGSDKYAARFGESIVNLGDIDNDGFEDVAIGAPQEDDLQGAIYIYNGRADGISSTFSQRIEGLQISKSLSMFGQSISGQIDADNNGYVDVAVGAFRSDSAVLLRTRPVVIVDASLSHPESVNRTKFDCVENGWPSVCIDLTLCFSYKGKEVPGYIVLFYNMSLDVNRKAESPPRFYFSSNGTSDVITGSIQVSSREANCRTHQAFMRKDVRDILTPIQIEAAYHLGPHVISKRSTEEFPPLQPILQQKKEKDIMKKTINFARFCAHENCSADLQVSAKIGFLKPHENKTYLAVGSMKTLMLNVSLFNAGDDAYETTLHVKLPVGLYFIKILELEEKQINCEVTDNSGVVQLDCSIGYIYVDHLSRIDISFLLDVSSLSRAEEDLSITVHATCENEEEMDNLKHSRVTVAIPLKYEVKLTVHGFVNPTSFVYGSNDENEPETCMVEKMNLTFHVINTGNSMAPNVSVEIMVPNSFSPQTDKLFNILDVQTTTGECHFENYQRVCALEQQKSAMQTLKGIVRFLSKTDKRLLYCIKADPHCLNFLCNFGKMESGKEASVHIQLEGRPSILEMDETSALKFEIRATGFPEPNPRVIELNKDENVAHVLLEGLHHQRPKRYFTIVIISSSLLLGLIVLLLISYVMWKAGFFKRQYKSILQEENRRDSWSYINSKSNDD
# Sequence (P05556 21-798): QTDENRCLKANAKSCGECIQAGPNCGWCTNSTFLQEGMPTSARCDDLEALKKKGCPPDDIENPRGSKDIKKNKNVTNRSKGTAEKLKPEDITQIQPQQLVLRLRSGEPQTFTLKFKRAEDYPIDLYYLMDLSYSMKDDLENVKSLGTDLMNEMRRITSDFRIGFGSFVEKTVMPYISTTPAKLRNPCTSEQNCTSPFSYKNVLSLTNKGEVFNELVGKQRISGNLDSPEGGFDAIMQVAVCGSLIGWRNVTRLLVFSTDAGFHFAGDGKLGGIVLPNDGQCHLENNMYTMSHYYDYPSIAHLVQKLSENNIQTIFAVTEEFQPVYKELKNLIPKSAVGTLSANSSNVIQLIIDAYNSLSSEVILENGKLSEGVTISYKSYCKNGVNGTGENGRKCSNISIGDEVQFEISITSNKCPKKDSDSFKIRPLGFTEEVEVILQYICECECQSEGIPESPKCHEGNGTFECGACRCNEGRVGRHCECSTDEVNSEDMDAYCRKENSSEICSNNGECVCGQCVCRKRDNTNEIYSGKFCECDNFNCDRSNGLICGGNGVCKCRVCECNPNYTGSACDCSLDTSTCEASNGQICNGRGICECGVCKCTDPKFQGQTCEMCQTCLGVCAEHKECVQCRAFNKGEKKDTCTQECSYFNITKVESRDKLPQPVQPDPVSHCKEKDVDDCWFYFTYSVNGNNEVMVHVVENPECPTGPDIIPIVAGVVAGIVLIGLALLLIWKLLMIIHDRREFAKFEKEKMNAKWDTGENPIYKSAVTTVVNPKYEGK
# experiment_notes: VCAM antagonist activity (VCAM-1/α4β1 binding assay), Jurkat cells binding to VCAM-1
# conditions_used: Jurkat cells binding to recombinant human VCAM-1; 50% binding inhibition; read-out: Antagonistic Activity IC50 α 4 β 1/VCAM
value_type: IC50 (µM)

Look over these answered cases.
{"columns": ["line_notation", "unit_descriptor", "IC50"],
 "data": [
  ["Cc1ccc2c(c1)C(=O)N(c1ccc(C[C@H](NC(=O)c3c(Cl)cccc3Cl)C(=O)O)cc1)C2=O", "µM", 0.24],
  ["CN(C)C(=O)c1ccc2c(c1)C(=O)N(c1ccc(C[C@H](NC(=O)c3c(Cl)cccc3Cl)C(=O)O)cc1)C2=O", "µM", 0.26],
  ["Cc1cccc2c1C(=O)N(c1ccc(C[C@H](NC(=O)c3c(Cl)cncc3Cl)C(=O)O)cc1)C2=O", "µM", 0.073],
  ["O=C(N[C@@H](Cc1ccc(N2C(=O)c3ccc([N+](=O)[O-])cc3C2=O)cc1)C(=O)O)c1c(Cl)cccc1Cl", "µM", 0.17]
]}

(1) O=C(N[C@@H](Cc1ccc(N2C(=O)Cc3ccccc3CC2=O)cc1)C(=O)O)c1c(Cl)cccc1Cl
(2) CCOc1cccc2c1C(=O)N(c1ccc(C[C@H](NC(=O)c3c(Cl)cccc3Cl)C(=O)O)cc1)C2=O
(3) CCOc1ccc2c(c1)C(=O)N(c1ccc(C[C@H](NC(=O)c3c(Cl)cccc3Cl)C(=O)O)cc1)C2=O
QUERY: Provide the items ranked by increasing IC50. Give the order by naming the labels one after another as requested.
RESULT: 2, 3, 1

====

# tgt: integrin α4 β1 (Homo sapiens, UniProt P05556+P13612)
# Construct: cell strain Jurkat (ATCC TIB-152) of human T cells, known to express integrin α4 β1; endogenous in cells
# experiment_notes: VCAM antagonist activity (VCAM-1/α4β1 binding assay), Jurkat cells binding to VCAM-1
# conditions_used: Jurkat cells binding to recombinant human VCAM-1; 50% binding inhibition; read-out: Antagonistic Activity IC50 α 4 β 1/VCAM
pIC50: −log10 of the molar value.
value_type: pIC50

Look over these answered cases.
{"columns": ["compound", "value_observed"],
 "data": [
  ["O=C(N[C@@H](Cc1ccc(N2C(=O)Cc3ccccc3C2=O)cc1)C(=O)O)c1c(Cl)cccc1Cl [Example 15]", 6.13],
  ["COc1ccc2c(c1)C(=O)N(c1ccc(C[C@H](NC(=O)c3c(Cl)cccc3Cl)C(=O)O)cc1)C2=O [Example 78]", 6.28],
  ["CC1CCC2C(=O)N(c3ccc(C[C@H](NC(=O)c4c(Cl)cccc4Cl)C(=O)O)cc3)C(=O)C2C1 (some centres unmarked) [Example 43]", 5.80],
  ["O=C(N[C@@H](Cc1ccc(N2C(=O)[C@@H]3[C@H](C2=O)[C@@H]2C=C[C@H]3C2)cc1)C(=O)O)c1c(Cl)cccc1Cl [Example 42]", 6.25],
  ["O=C(N[C@@H](Cc1ccc(N2C(=O)c3ccccc3C2=O)cc1)C(=O)O)c1c(Cl)cccc1Cl [Example 1]", 6.68]
]}

(a) Nc1cccc2c1C(=O)N(c1ccc(C[C@H](NC(=O)c3c(Cl)cccc3Cl)C(=O)O)cc1)C2=O [Example 71]
(b) CCCCOc1cccc2c1C(=O)N(c1ccc(C[C@H](NC(=O)c3c(Cl)cccc3Cl)C(=O)O)cc1)C2=O [Example 75]
QUERY: Hi! Which is lower in terms of pIC50, the first one a or the second one b ? Response format: the label of the selected entry.
RESULT: b
(b: 6.10, a: 6.39)

(1) O=C(N[C@@H](Cc1ccc(N2C(=O)[C@@H]3[C@H](C2=O)[C@@H]2C=C[C@H]3CC2)cc1)C(=O)O)c1c(Cl)cccc1Cl [Example 44]
(2) O=C(N[C@@H](Cc1ccc(N2CC=CCC2=O)cc1)C(=O)O)c1c(Cl)cccc1Cl [Example 26]
(3) CC(=O)C1Cc2ccccc2C(=O)N1c1ccc(C[C@H](NC(=O)c2c(Cl)cccc2Cl)C(=O)O)cc1 (some centres unmarked) [Example 86]
QUERY: Provide the items ranked by increasing pIC50. Give the order by naming the labels one after another as requested.
RESULT: 2, 1, 3
(2: 5.28, 1: 5.85, 3: 6.28)

(P) O=C(N[C@@H](Cc1ccc(N2C(=O)[C@H]3CC[C@H](c4ccccc4)C[C@H]3C2=O)cc1)C(=O)O)c1c(Cl)cccc1Cl [Example 47]
(Q) O=C(N[C@@H](Cc1ccc(N2C(=O)c3cccc4cccc(c34)C2=O)cc1)C(=O)O)c1c(Cl)cccc1Cl [Example 16]
QUERY: Compare the recorded pIC50 of P and Q ; state which is larger. Response format: the label of the selected entry.
RESULT: Q
(Q: 5.96, P: 5.68)

(P) CC1(C)[C@H]2CC[C@]1(C)C(=O)N(c1ccc(C[C@H](NC(=O)c3c(Cl)cccc3Cl)C(=O)O)cc1)C2=O [Example 49]
(Q) O=C(N[C@@H](Cc1ccc(N2C(=O)c3ccc(OCc4ccccc4)cc3C2=O)cc1)C(=O)O)c1c(Cl)cccc1Cl [Example 80]
(R) Cc1cccc2c1C(=O)N(c1ccc(C[C@H](NC(=O)c3c(Cl)cc(-c4nnn[nH]4)cc3Cl)C(=O)O)cc1)C2=O [Example 83]
(S) Cc1ccc(C)c2c1C(=O)N(c1ccc(C[C@H](NC(=O)c3c(Cl)cccc3Cl)C(=O)O)cc1)C2=O [Example 30]
QUERY: Provide the items ranked by increasing pIC50. Give the order by naming the labels one after another as requested.
RESULT: P, Q, S, R
(P: 5.70, Q: 5.96, S: 6.35, R: 8.23)
